System: Bacillus cereus
measurement_notes: Antibacterial activity against Bacillus cereus after 24 hrs by agar dilution method
Format: functional
value_type: MIC (µM)

Answered cases to consult:
COc1ccc2[nH]c(-c3cccc(O)c3)nc2c1: 25
Oc1cccc(-c2nc3ccccc3[nH]2)c1: 50
COc1ccc(-c2nc3ccccc3[nH]2)cc1: 50

[1] COc1ccc2[nH]c(-c3ccccc3)nc2c1
[2] Oc1ccc2[nH]c(-c3ccccc3O)nc2c1
Inquiry: Endpoint returns the identifier whose MIC is numerically larger, either 1 or 2 . Respond using the label that marks the chosen record.
Reply text: 1

====

MIC reference
System: Bacillus cereus
measurement_notes: Antibacterial activity against Bacillus cereus after 24 hrs by agar dilution method
Assay type: functional

Before answering, review these 3 worked examples.
Oc1ccc(-c2nc3ccccc3[nH]2)cc1: > 200 µM
COc1ccc2[nH]c(-c3ccc(O)cc3)nc2c1: 50 µM
O=C(O)c1cn(C2CC2)c2cc(N3CCNCC3)c(F)cc2c1=O: 0.39 µM

Now examine the next entry.
Record summary for COc1cc(O)ccc1-c1nc2cc(O)ccc2[nH]1 : reported MIC = > 200 µM

====

Tested on: Bacillus cereus
measurement_notes: Antibacterial activity against Bacillus cereus after 24 hrs by agar dilution method
Type: functional
The following compounds are shown together with reported MIC values.

MIC in this record for COc1ccc2[nH]c(-c3ccc(O)c(OC)c3)nc2c1 : 50 µM

compound c1ccc(-c2nc3ccccc3[nH]2)cc1 , MIC observed: > 200 µM

Per the records, this compound ( COc1ccc(-c2nc3cc(OC)ccc3[nH]2)c(OC)c1 ) has MIC equal to > 200 µM

Value of MIC reported for the compound COc1cc(OC)cc(-c2nc3cc(OC)ccc3[nH]2)c1 is > 200 µM

Recorded result, Oc1ccccc1-c1nc2ccccc2[nH]1 , MIC: > 200 µM
